Biological target: Human NPY5 Receptor (Homo sapiens, UniProt Q15761)
Sequence (Q15761 1-445): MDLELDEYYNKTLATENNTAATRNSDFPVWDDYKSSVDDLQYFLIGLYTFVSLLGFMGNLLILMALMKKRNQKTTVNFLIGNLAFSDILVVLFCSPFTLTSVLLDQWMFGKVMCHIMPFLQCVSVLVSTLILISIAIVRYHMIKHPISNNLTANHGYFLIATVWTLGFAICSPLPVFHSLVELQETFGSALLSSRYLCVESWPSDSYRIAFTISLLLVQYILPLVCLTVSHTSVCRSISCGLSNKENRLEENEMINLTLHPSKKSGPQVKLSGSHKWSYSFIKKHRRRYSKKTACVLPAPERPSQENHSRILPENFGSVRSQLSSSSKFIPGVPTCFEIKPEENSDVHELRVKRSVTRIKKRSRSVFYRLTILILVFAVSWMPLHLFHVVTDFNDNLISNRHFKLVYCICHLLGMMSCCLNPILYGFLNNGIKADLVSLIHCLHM
Assay: Human NPY5 Receptor Binding Assay
Conditions: [125I]PYY; read-out: hNPY5 IC50
READOUT TYPE: IC50 (µM)

COMPOUND | TEST SYSTEM | IC50, µM
CCC(C)c1ccc(NC(=O)CSc2nncn2C)cc1 (stereo not drawn) [Compound 172, reference compound] | Human NPY5 Receptor (Homo sapiens, UniProt Q15761) | 2.3
O=C(CSc1nc2ccccc2o1)Nc1ccc(C(=O)c2ccccc2)cc1 | Human NPY5 Receptor (Homo sapiens, UniProt Q15761) | 3
Nc1ccc(SCC(=O)Nc2ccc(C3CCCCC3)cc2)cc1 | Human NPY5 Receptor (Homo sapiens, UniProt Q15761) | 0.69
O=C(CSc1nnc(-c2ccco2)[nH]1)Nc1ccc(C2CCCCC2)cc1 | Human NPY5 Receptor (Homo sapiens, UniProt Q15761) | 1.4
CC(Sc1nnnn1C)C(=O)Nc1ccc(C2CCCCC2)cc1 (stereo not drawn) | Human NPY5 Receptor (Homo sapiens, UniProt Q15761) | 0.059

a. Cn1c(CO)cnc1SCC(=O)Nc1ccc(C(=O)c2ccccc2)cc1
b. Cc1ccc2[nH]c(SCC(=O)Nc3ccc(C(=O)c4ccccc4)cc3)nc2c1
I would appreciate it if you could say which entry, a or b , has the lower IC50 value. State your choice using its label.
b
(b: 0.31 µM, a: 0.91 µM)
